B1: SFRS1 (parent)
chain: RDIDLKNRRGGPPFAFVEFEDPRD

Variants of: B1
test details: protein stability index of a GFP-peptide fusion (GPS, HEK-293T) (PSI 1-6); higher = more stable;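 also: lentivirally expressed fusions sorted by FACS into six bins by GFP to DsRed ratio, PSI derived from sequencing read proportions per bin multiplied by bin number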
assay context: c terminus: a fixed tail appended
Label Condition not met if protein stability index falls below 4; label Condition met in every other case.

Recorded results for 3 variants are shown here.
[
  {
    "sequence": "RDIDLKNRRGGPPFAFVEFELPRD",
    "category": "Condition not met"
  },
  {
    "sequence": "RDICLKNRRGGPPFAFVEFEDPRD",
    "category": "Condition not met"
  },
  {
    "sequence": "RDIDLKNRRGGAPFAFVEFEDPRD",
    "category": "Condition met"
  }
]

Data request: Does protein stability index meet or surpass 4 for `RDIDLKNRRGGPPFCFVEFEDPRD` ?
Data returned: Condition not met

Data request: Does protein stability index meet or surpass 4 for `RDIDLKNTRGGPPFAFVEFEDPRD` ?
Data returned: Condition met

Data request: Does protein stability index meet or surpass 4 for `RDIDLKNRRGGPPFAFVWFEDPRD` ?
Data returned: Condition not met

Source: the supplement of paper PMC10567573
